The origin of these recorded values is PubChem BioAssay (NCI).

Test system: OVCAR-5 ovarian
Test: NCI tumour cell line growth inhibition, 48 h; in the data active = GI50 below about 0.43 µM; inactive = the rest
Hi there, use one of these labels in your reply, thanks! active, inactive

Please indicate how the test categorized c1ccc(C2=NOC3(c4ccccc4)CC(c4cccs4)Sc4ccccc4N23)cc1 (stereo unspecified) .
inactive

Identify the outcome logged in this assay for the compound shown: COc1cc2c(/C=N\N=C(N)N)c(Cl)[nH]c2cc1C
inactive

Which outcome did this test record for the compound C=C1C(=O)O[C@H]2[C@H]1CC/C(CNC(=O)/C=C/c1ccc(Br)cc1)=C\CC[C@@]1(C)O[C@@H]21 ?
inactive

Record lookup: outcome of this test for CN(C)CCCOc1ccccc1NC1=C(Cl)C(=O)C(Nc2ccccc2OCCCN(C)C)=C(Cl)C1=O ?
inactive

Can you look up the reported call for COc1ccc(C#Cc2ccccc2C#CCCCCO)cc1 for me?
inactive

Short answer needed: outcome of this test for FC(F)(F)c1ccc(-c2nc(-c3nc4cc(Cl)c(Cl)cc4[nH]3)c3ccccn23)cc1 ?
inactive

How did this test come out for COC(=O)[C@@H](NC(=O)NC(=O)NC(=O)CI)C(C)C ?
inactive

Field: outcome | Entry: CC(=O)N1CCN(C2=Nc3ccccc3CO2)C1=S
inactive

Lab log entry: COc1cc(-c2nn3c(/C=C4/C(=O)Nc5ccccc54)c(-c4ccc(C)cc4)nc3s2)cc(OC)c1OC — outcome as called in the assay?
inactive

For COc1ccc2c(c1)C(=O)c1c-2n(CCCN)c(=O)c2ccccc12 , which call appears in the assay record?
active

Can you look up the reported call for O=[N+]([O-])c1ccc(Nc2ccccc2-c2ccccc2)c2nonc12 for me?
inactive

# fetch the recorded call for C=CC(=O)Nc1ccc(Nc2nccc(-c3ccc(N4CCCC4)c(C#N)c3)n2)cc1 here
inactive

Please indicate how the test categorized CO[C@H](C(=O)[C@@H](O)[C@@H](C)O)[C@@H]1Cc2cc3cc(O[C@H]4C[C@@H](O[C@H]5C[C@@H](O)[C@H](O)C(C)O5)[C@H](O)C(C)O4)c(C)c(O)c3c(O)c2C(=O)[C@H]1O[C@H]1C[C@@H](O[C@H]2C[C@@H](O[C@H]3C[C@@H](OC)[C@H](O)C(C)O3)[C@@H](O)C(C)O2)C(O)(O)C(C)O1 (stereo partly specified) .
active

Please indicate how the test categorized CCC[CH2][Sn]([CH2]CCC)([O]C(=O)c1c(F)cccc1F)[O]C(=O)c1c(F)cccc1F .
inactive

Assay result, entry O=C(/C=C/c1ccc(B(O)O)cc1)/C=C/c1ccc(B(O)O)cc1 — outcome?
inactive

So what was the verdict on CC1=C([Se]CC(OC(=O)[C@@H](CSSC(C)(C)C)NC(=O)OC(C)(C)C)C(=O)NC(C)(C)C)C(=O)c2ccccc2C1=O (stereo partly specified) in this test?
inactive

* * *

Test system: M19-MEL melanoma
Assay: NCI tumour cell line growth inhibition, 48 h
Could you please report measured TGI for the items listed next?

Param readout= TGI; system= M19-MEL melanoma; entry= C=C1C(=O)OC2/C=C(\C)C(OC(C)=O)C3OC3C(C)(O)CC(OC(=O)/C(C)=C/C)C12 (stereo unspecified) ; returns value.
22.3 µM

Any idea what TGI came out for c1ccc(SC2(Sc3ccccc3)CCCC2)cc1 on M19-MEL melanoma?
> 100 µM

Give TGI (M19-MEL melanoma) of the following molecule: CC[P+](C)(Cc1ccccc1)c1ccccc1 (stereo unspecified)
> 100 µM

Item COc1cc2c(cc1O)C=NCC2 with M19-MEL melanoma - TGI?
> 100 µM

Write down the reported TGI of CCCNC1CC(n2cc(C)c(=O)[nH]c2=O)OC1CO (stereo unspecified) , test system: M19-MEL melanoma.
> 100 µM

Record O=C(Nc1cccc2ccccc12)Oc1ccccc1C1CCCCC1 : what is its TGI with M19-MEL melanoma?
43.4 µM
